- SYSTEM: PRMT5-MEP50 (Homo sapiens)
- Sequence (O14744 whole entry): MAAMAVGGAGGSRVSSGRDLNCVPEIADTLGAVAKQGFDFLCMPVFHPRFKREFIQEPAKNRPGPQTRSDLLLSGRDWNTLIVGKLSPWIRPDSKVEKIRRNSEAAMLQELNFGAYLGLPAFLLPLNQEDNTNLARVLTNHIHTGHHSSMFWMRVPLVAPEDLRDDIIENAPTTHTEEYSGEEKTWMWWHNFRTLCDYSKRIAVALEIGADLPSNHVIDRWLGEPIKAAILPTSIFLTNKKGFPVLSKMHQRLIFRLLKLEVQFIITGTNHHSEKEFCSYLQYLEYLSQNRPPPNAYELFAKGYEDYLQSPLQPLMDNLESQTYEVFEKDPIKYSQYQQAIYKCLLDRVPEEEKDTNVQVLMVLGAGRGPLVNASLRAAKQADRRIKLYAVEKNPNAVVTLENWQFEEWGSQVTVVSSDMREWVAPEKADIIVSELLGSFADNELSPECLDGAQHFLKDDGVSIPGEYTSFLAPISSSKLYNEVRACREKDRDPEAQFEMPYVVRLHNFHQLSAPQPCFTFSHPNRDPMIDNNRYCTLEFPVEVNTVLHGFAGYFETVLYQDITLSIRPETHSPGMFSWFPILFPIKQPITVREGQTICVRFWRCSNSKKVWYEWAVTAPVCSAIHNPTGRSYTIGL
- Sequence (Q9BQA1 whole entry partner): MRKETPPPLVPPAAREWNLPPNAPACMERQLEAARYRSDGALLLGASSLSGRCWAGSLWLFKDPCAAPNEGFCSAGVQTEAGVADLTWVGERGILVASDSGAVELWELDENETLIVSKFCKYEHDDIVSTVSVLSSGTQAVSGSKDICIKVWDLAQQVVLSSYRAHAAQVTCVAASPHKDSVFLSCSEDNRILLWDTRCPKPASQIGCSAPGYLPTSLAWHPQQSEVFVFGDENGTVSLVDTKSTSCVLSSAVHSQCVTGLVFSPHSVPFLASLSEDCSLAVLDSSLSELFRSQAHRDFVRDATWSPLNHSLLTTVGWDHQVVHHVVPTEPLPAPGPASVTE
- ASSAY_PROCEDURE: PRMT5 assay (3H-SAM flashplate)
- MEASUREMENT_CONTEXT: Table 4; PRMT5 biochemical assay
- Procedure: Assays were performed in a 25 μl-volume in 384-well V-bottom polypropylene microplates (Greiner Bio-One, cat. No. 781280) at ambient temperature. Optimized 1× assay buffer was 20 mM Tris-HCl pH 8.0, 1 mM DTT, 0.01% Tween, 0.01%. […] Following two washing cycles with 0.1% Tween-20, the plates were sealed and read on a TopCount (PerkinElmer, Waltham, MA) plate-based scintillation counter. […]
pIC50: −log10 of the molar value.
PROPERTY_MEASURED: pIC50

Here's what some known entries look like.
pIC50 in this record for Cn1ccc(-c2cn([C@@H]3O[C@H](C(=O)NC4CCn5ccnc5C4)[C@@H](O)[C@H]3O)c3ncnc(N)c23)n1 (stereo partly drawn) : 6.00 to 7.00

// field: pIC50; key: "Cn1ccc(-c2cn([C@@H]3O[C@H](C(=O)NC4CCN(CCO)CC4)[C@@H](O)[C@H]3O)c3ncnc(N)c23)n1" ; value = 7.00 to 8.00

The recorded pIC50 for entry "COCCn1ccc(-c2cn([C@@H]3O[C@H](C(=O)NC4CCN(C)CC4)[C@@H](O)[C@H]3O)c3ncnc(N)c23)n1" equals 6.00 to 7.00

// field: pIC50; key: Cn1ccc(-c2cn([C@@H]3O[C@H](C(=O)NC4CCNC(C)(C)C4)[C@@H](O)[C@H]3O)c3ncnc(N)c23)n1 (stereo partly drawn) ; value = 7.00 to 8.00

The reported pIC50 of the compound "CN1CCC(NC(=O)[C@H]2C[C@@H](n3cc(-c4ccn(C)n4)c4c(N)ncnc43)[C@H](O)[C@@H]2O)CC1" was 7.00 to 8.00

Next:
So, "Cn1ccc(-c2cn([C@@H]3O[C@H](C(=O)N4CCC[C@@H](C(N)=O)C4)[C@@H](O)[C@H]3O)c3ncnc(N)c23)n1" ? Its pIC50 was ≤ 6.00

Reference source: patent US20240051985A1
